- TARGET OF ASSAY: Melanin-concentrating hormone receptor 1 (Homo sapiens)
- Sequence (Q99705 whole entry): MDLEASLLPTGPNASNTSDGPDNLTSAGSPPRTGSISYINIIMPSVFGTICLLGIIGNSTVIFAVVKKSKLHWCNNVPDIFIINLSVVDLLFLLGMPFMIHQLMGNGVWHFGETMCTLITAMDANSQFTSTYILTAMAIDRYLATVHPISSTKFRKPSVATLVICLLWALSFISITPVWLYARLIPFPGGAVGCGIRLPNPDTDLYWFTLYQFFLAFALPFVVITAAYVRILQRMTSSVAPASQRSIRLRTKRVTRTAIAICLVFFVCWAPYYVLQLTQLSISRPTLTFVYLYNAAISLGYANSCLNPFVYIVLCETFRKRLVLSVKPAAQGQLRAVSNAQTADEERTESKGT
- MEASUREMENT NOTES: Concentration required to inhibit binding of [125I]-MCH radioligand to human Melanin-concentrating hormone receptor 1 in IMR-32 I3.4.2 cell membranes
REPORTED METRIC: IC50 (nM)

// known answers, use as guide
> print(dat)
                                   compound  reported.metric  measured
1  O=C(NCCCOc1cccc2ccc(NCc3ccc(-c4ccccc4Cl)o3)nc12)Nc1ccc2c(c1)OCO2             IC50        50
2   Nc1ccc2cccc(OCCCNC(=O)c3cccc(Cl)c3)c2n1             IC50       0.4
3             Nc1ccc2cccc(OCCNCc3ccoc3)c2n1             IC50       660
4  CCCNc1ccc2cccc(OCCCNC(=O)c3cccc(Cl)c3)c2n1             IC50        10
5    CC(C)c1ccc(CNCCCOc2cccc3ccc(N)nc23)cc1             IC50        10

[1] CC(CNCC1CCCC1)Oc1cccc2ccc(N)nc12 (stereo not drawn)
[2] N#Cc1cccc(C(=O)NCCCOc2cccc3ccc(NCc4ccc(-c5ccc(Cl)cc5)o4)nc23)c1
[Q] Please indicate which item has the smaller measured IC50: 1 versus 2 The response must carry the label of the picked entry.
[A] 2

[I] O=C(NCCCOc1cccc2ccc(NCc3ccc(-c4ccccc4Cl)o3)nc12)c1cccc(Cl)c1
[II] CC(CNCc1ccoc1)Oc1cccc2ccc(N)nc12 (stereo not drawn)
[Q] In the pair I and II , the larger recorded IC50 belongs to which? API: response body contains the label of the selected item.
[A] II
(II: 10 nM, I: 1 nM)

====

- TARGET OF ASSAY: Melanin-concentrating hormone receptor 1 (Homo sapiens)
- MEASUREMENT NOTES: Concentration required to inhibit 50% of melanin-concentrating hormone induced [Ca2+] flux in IMR-32 cells measured by using a fluorometric imaging plate reader
- Assay type: functional, cell-based
REPORTED METRIC: IC50 (µM)

See these solved cases before continuing.
> print(dat)
                                   compound                           target.of.assay  measured
1  CCCNc1ccc2cccc(OCCCNC(=O)c3cccc(Cl)c3)c2n1  Melanin-concentrating hormone receptor 1 (Homo sapiens)      1.12
2  N#Cc1cccc(C(=O)NCCCOc2cccc3ccc(NCc4ccc(-c5ccc(Cl)cc5)o4)nc23)c1  Melanin-concentrating hormone receptor 1 (Homo sapiens)      0.04
3  Nc1ccc2cccc(OCCCNC(=O)Nc3cccc(Cl)c3)c2n1  Melanin-concentrating hormone receptor 1 (Homo sapiens)     0.008
4  CC(CN1CCCC1)Oc1cccc2ccc(N)nc12 (stereo not given)  Melanin-concentrating hormone receptor 1 (Homo sapiens)      0.36
5  O=C(NCCCOc1cccc2ccc(NCc3ccc(-c4ccccc4Cl)o3)nc12)Nc1ccc2c(c1)OCO2  Melanin-concentrating hormone receptor 1 (Homo sapiens)      3.11
6  CC(CNCC1CC1)Oc1cccc2ccc(N)nc12 (stereo not given)  Melanin-concentrating hormone receptor 1 (Homo sapiens)      0.46

[P] N#Cc1cccc(C(=O)NCCCOc2cccc3ccc(NCc4ccc(-c5cccc(Cl)c5)o4)nc23)c1
[Q] CC(CNCc1ccsc1)Oc1cccc2ccc(N)nc12 (stereo not given)
[Q] Could you tell me which of these two has the smaller IC50 figure? First: P Second: Q Reply with the label of the item you choose.
[A] P

[1] COCC1=C(C(=O)OC)[C@H](c2ccc(F)c(F)c2)N(C(=O)NCCCN2CCC(c3cccc(NC(C)=O)c3)CC2)C(=O)N1
[2] Nc1ccc2cccc(OCCCNCc3ccc(Cl)c(C(F)(F)F)c3)c2n1
[Q] Hi, I'm comparing 1 with 2 and wondering which one has the bigger number for IC50. Any idea? State the label of the item chosen.
[A] 2
(2: 0.22 µM, 1: 0.015 µM)

[A] Nc1ccc2cccc(OCCCNc3ccc4c(c3)OC(F)(F)O4)c2n1
[B] Nc1ccc2cccc(OCCNCc3ccc4c(c3)OCO4)c2n1
[Q] Would you mind telling me which has the lower recorded IC50 between A and B ? Returns: label corresponding to the selected item.
[A] A
